- Test system: MCF7
- Method: NCI tumour cell line growth inhibition, 48 h
Active and inactive are the calls of the source. No stated cut-off is given here; in the data, active = GI50 up to about 1.1 µM and inactive = higher.
Reported metric: GI50

Compound	GI50
COC(=O)[C@]1(NC(=O)c2ccccc2)C[C@H]1C=O	> 100 µM (inactive)

So what does the record say about GI50 for N=C(N)N/N=C(/c1ccccc1)c1ccc(O)cc1O ?
30.7 µM (inactive)

So what does the record say about GI50 for CCCCCCCCCCCCCCCCOCC(CC(F)(F)P(=O)(OCC)OCC)OC(C)=O (configuration not stated) ?
15.8 µM (inactive)

So what does the record say about GI50 for CC[C@@]1(C[C@H]2C[C@@]3(C(=O)OC)c4[nH]c5ccccc5c4CCN3C2=S)COC2(CCCCC2)O1 ?
33.3 µM (inactive)

So what does the record say about GI50 for Oc1cc(-c2ccccc2)nc2cc3c(cc12)OCO3 ?
36.8 µM (inactive)

So what does the record say about GI50 for Cc1ccccc1Nc1cn(CCOc2ccccc2)c(=O)n(CCOc2ccccc2)c1=O ?
90.8 µM (inactive)

So what does the record say about GI50 for O=C(Nc1cccc(Cl)c1)Nn1cnnc1 ?
> 100 µM (inactive)
